Target desc: human Yes1 enzyme (Homo sapiens)
Construct: made in house
Sequence (P07947 whole entry): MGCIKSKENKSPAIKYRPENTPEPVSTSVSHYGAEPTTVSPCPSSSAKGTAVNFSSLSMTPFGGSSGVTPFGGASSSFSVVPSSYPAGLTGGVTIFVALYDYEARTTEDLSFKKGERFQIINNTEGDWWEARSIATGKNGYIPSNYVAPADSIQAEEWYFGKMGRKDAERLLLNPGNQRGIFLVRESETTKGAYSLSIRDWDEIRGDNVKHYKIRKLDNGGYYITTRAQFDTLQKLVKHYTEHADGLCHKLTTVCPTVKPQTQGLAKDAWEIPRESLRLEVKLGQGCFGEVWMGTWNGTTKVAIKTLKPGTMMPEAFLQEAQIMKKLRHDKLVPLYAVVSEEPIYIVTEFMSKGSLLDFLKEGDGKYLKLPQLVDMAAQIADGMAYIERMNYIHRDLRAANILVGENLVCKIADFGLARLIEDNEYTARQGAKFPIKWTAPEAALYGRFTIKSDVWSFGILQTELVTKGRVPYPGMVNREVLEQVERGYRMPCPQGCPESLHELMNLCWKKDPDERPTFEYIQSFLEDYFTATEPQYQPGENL
Assay info: Yes1 enzyme inhibitory activity (time-resolved fluorometry, biotinylated peptide phosphorylation)
Assay type: biochemical
Run parameters: biotinylated peptide phosphorylation, read-out: YES_IC50
pIC50 overview
Here pIC50 is given on a logarithmic scale as minus log10 of the concentration in mol/L.

Recorded results for 5 compounds are shown here.
Compound	pIC50
Cc1cc(Oc2ccccc2F)ccc1-n1ncc(C(=O)c2cc3cc(OC(F)F)c(N4CCCC4=O)cc3[nH]2)c1N	8.80
COc1cc2cc(C(=O)c3cnn(-c4cnc(Oc5c(F)cccc5F)cc4C)c3N)[nH]c2cc1NS(=O)(=O)C1CC1	8.92
Cc1cc(-n2ncc(C(=O)c3cc4cc(C)c(N5C(=O)NC(C)(C(F)(F)F)C5=O)cc4[nH]3)c2N)ccc1Oc1ccccc1F (stereo not drawn)	7.40
Cc1cc(Oc2ccccc2F)cc(F)c1-n1ncc(C(=O)c2cc3cc(OCC(F)F)c(C4CCN(S(=O)(=O)C5CC5)CC4)cc3[nH]2)c1N	8.49
Cc1cc(Oc2cccc(F)c2)ncc1-n1ncc(C(=O)c2cc3cc(F)c(NS(C)(=O)=O)cc3[nH]2)c1N	8.72

Let's switch to this compound now.
input: What pIC50 value was documented for this compound, Cc1cc(Oc2ccccc2F)ccc1-n1ncc(C(=O)c2cc3cc(OC4CCOCC4)c(NS(C)(=O)=O)cc3[nH]2)c1N ?
output: 8.38

* * *

log10(IC50) overview
Target desc: human Src enzyme (Homo sapiens)
Construct: purchased Carna Biosciences, Inc. 08-173
Sequence (P12931 whole entry): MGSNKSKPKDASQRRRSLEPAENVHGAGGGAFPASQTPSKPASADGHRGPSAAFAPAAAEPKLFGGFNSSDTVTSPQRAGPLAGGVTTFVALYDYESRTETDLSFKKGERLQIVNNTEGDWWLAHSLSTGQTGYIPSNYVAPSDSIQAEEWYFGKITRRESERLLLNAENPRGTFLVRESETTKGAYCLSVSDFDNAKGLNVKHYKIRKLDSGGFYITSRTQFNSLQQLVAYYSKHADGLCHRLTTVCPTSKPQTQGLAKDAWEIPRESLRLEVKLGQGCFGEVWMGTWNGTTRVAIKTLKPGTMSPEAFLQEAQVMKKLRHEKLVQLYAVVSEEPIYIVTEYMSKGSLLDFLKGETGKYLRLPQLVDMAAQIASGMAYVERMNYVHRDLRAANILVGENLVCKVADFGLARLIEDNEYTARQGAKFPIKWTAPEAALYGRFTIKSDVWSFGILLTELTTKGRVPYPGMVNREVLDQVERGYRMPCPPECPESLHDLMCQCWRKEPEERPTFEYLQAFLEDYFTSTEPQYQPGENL
Assay info: Src enzyme inhibitory activity (time-resolved fluorometry, biotinylated peptide phosphorylation)
Format: biochemical
Run parameters: biotinylated peptide phosphorylation, read-out: SRC_IC50
Please keep in mind that the values are log10 of IC50 expressed in nM.

Recorded results for 5 molecules are shown here.
Molecule	log10(IC50)
Cc1cc2cc(C(=O)c3cnn(-c4cnc(Oc5ccccc5F)cc4C)c3N)[nH]c2cc1NS(C)(=O)=O [Example 4-2-061]	1.49
Cc1cc(Oc2c(F)cccc2F)ncc1-n1ncc(C(=O)c2cc3cc(OCC(F)F)c(NS(=O)(=O)c4cccc(Cl)n4)cc3[nH]2)c1N [Example 5-1-572]	2.84
Cc1cc2cc(C(=O)c3cnn(-c4cnc(Oc5ccccc5F)cc4C)c3N)[nH]c2cc1NS(=O)(=O)c1cccc(F)c1 [Example 5-1-500]	2.88
Cc1cc(Oc2c(F)cccc2F)ncc1-n1ncc(C(=O)c2cc3cc(OC(F)F)c(NC4CCN(S(C)(=O)=O)CC4)cc3[nH]2)c1N [Example 4-23-015]	1.69
Cc1cc2cc(C(=O)c3cnn(-c4c(C)cc(Oc5ccccc5F)cc4F)c3N)[nH]c2cc1N1CCCS1(=O)=O [Example 4-2-114]	1.86

input: For human Src enzyme (Homo sapiens), provide log10(IC50) of Cc1cc2cc(C(=O)c3cnn(-c4cnc(Oc5c(F)cccc5F)cc4C)c3N)[nH]c2cc1NS(=O)(=O)c1c(F)cc(F)cc1F [Example 5-1-565] please.
output: 3.04

input: For human Src enzyme (Homo sapiens), provide log10(IC50) of Cc1cc(Oc2ccccc2F)ncc1-n1ncc(C(=O)c2cc3cc(N4CCOCC4)c(NS(C)(=O)=O)cc3[nH]2)c1N [Example 4-24-015] please.
output: 1.89

input: For human Src enzyme (Homo sapiens), provide log10(IC50) of Cc1cc(Oc2ccccc2F)ncc1-n1ncc(C(=O)c2cc3cc(OC(F)F)c(NS(=O)(=O)C4CCOCC4)cc3[nH]2)c1N [Example 5-1-401] please.
output: 2.15

input: For human Src enzyme (Homo sapiens), provide log10(IC50) of Cc1cc2cc(C(=O)c3cnn(-c4cnc(Oc5ccc(F)cc5)cc4C)c3N)[nH]c2cc1NS(C)(=O)=O [Example 4-2-067] please.
output: 1.99

input: For human Src enzyme (Homo sapiens), provide log10(IC50) of Cc1cc(Oc2c(F)cccc2F)ncc1-n1ncc(C(=O)c2cc3cc(OCC(F)F)c(NS(=O)(=O)c4cncc(Cl)c4)cc3[nH]2)c1N [Example 5-1-575] please.
output: 2.81

input: For human Src enzyme (Homo sapiens), provide log10(IC50) of Cc1cc(Oc2c(F)cccc2F)ncc1-n1ncc(C(=O)c2cc3cc(OC(F)F)c(N4CCCS4(=O)=O)cc3[nH]2)c1N [Example 4-25-005] please.
output: 1.72

input: For human Src enzyme (Homo sapiens), provide log10(IC50) of Cc1cc(Oc2ccccc2Cl)cc(F)c1-n1ncc(C(=O)c2cc3cc(F)c(NS(=O)(=O)C4CC4)cc3[nH]2)c1N [Example 4-7-010] please.
output: 2.45

input: For human Src enzyme (Homo sapiens), provide log10(IC50) of Cc1cc(Oc2ccccc2F)ccc1-n1ncc(C(=O)c2cc3cc(Cl)c(NS(C)(=O)=O)cc3[nH]2)c1N [Example 4-2-077] please.
output: 1.40

* * *

Target desc: human Yes1 enzyme (Homo sapiens)
Construct: made in house
Assay info: Yes1 enzyme inhibitory activity (time-resolved fluorometry, biotinylated peptide phosphorylation)
Format: biochemical
Run parameters: biotinylated peptide phosphorylation, read-out: YES_IC50
Protocol: 1. Yes1 Enzyme Inhibitory Activity Yes1 inhibitory activity was determined based on activity of inhibiting phosphorylation reaction of a biotinylated peptide (EGPWLEEEEEAYGWMDF) using a human Yes1 enzyme prepared using a baculovirus expression system. The phosphorylated biotinylated peptide was detected by time-resolved fluorometry using an anti-phosphorylated tyrosine antibody conjugated to europium cryptate, and streptavidin conjugated to XL665, an allophycocyanin derivative. […]
pIC50 overview
Here pIC50 is given on a logarithmic scale as minus log10 of the concentration in mol/L.

Recorded results for 2 compounds are shown here.
Compound	pIC50
Cc1cc(Oc2ccccc2F)ncc1-n1ncc(C(=O)c2cc3cc(OC(F)F)c(NC4CCN(S(C)(=O)=O)CC4)cc3[nH]2)c1N [Example 4-23-026]	8.35
Cc1cc(Oc2ccccc2F)cc(F)c1-n1ncc(C(=O)c2cc3cc(OCC(F)F)c(NC4CN(S(C)(=O)=O)C4)cc3[nH]2)c1N [Example 4-23-027]	8.72

Let's switch to this compound now.
input: What pIC50 value was documented for this compound, Cc1cc(Oc2c(F)cccc2F)ncc1-n1ncc(C(=O)c2cc3cc(F)c(NS(=O)(=O)c4cccnc4)cc3[nH]2)c1N [Example 5-1-491] ?
output: 8.31

* * *

Target desc: human Yes1 enzyme (Homo sapiens)
Construct: made in house
Assay info: Yes1 enzyme inhibitory activity (time-resolved fluorometry, biotinylated peptide phosphorylation)
Format: biochemical
Run parameters: biotinylated peptide phosphorylation, read-out: YES_IC50
IC50 overview
// note: answer is a bare numeric in nM

Recorded results for 2 compounds are shown here.
Compound	IC50 [nM]
Cc1cc(Oc2ccccc2F)cc(F)c1-n1ncc(C(=O)c2cc3cc(OC(F)F)c(C4CCN(S(=O)(=O)C5CC5)CC4)cc3[nH]2)c1N [Example 4-17-007]	3.9
COc1cc2cc(C(=O)c3cnn(-c4ccc(Oc5ccccc5F)cc4C)c3N)[nH]c2cc1NS(=O)(=O)CCCF [Example 4-13-002]	2.4

Let's switch to this compound now.
input: For human Yes1 enzyme (Homo sapiens), provide IC50 of Cc1cc(Oc2ccccc2F)ccc1-n1ncc(C(=O)c2cc3cc(F)c(NS(=O)(=O)NC(C)C)cc3[nH]2)c1N [Example 4-5-004] please.
output: 3.3

* * *

Target desc: human Lck enzyme (Homo sapiens, UniProt P06239)
Construct: purchased Carna Biosciences, Inc. 08-170
Sequence (P06239 whole entry): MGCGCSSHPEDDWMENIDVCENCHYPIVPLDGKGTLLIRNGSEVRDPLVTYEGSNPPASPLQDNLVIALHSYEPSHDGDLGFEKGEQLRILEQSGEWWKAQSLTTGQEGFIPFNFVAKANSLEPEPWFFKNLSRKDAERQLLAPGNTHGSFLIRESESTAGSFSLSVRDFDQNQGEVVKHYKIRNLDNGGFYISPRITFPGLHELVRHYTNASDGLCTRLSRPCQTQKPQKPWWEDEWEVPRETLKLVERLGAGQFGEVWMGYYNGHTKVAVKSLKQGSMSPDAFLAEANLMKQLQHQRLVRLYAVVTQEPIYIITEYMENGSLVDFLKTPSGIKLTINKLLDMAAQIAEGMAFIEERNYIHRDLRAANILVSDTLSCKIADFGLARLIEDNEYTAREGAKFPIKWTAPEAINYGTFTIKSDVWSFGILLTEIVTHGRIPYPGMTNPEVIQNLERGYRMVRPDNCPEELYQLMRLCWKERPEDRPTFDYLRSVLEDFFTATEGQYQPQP
Assay info: Lck enzyme inhibitory activity (time-resolved fluorometry, biotinylated peptide phosphorylation)
Assay type: biochemical
Run parameters: read-out: LCK_IC50
pIC50: −log10 of the molar value.
# if value of pIC50 reaches 7, tag criterion met; if it stays below, tag criterion not met

Compound	Category label
Cc1cc(-n2ncc(C(=O)c3cc4cc(OC5CCN(C(C)C)CC5)c(N)cc4[nH]3)c2N)ccc1Oc1ccccc1F [Example 5-1-163]	criterion met
Cc1cc(Oc2c(F)cccc2F)ncc1-n1ncc(C(=O)c2cc3cc(OCC(F)F)c(NS(=O)(=O)c4cc(F)cc(F)c4)cc3[nH]2)c1N [Example 5-1-330]	criterion not met
Cc1cc2cc(C(=O)c3cnn(-c4cnc(Oc5c(F)cccc5F)cc4C)c3N)[nH]c2cc1N1C(=O)NC2(CCC2)C1=O [Example 5-1-341]	criterion met
Nc1c(C(=O)c2cc3cc(F)c(NS(=O)(=O)C4CC4)cc3[nH]2)cnn1-c1c(Cl)cc(Oc2ccccc2F)cc1Cl [Example 5-1-025]	criterion not met

input: Given Cc1cc2cc(C(=O)c3cnn(-c4cnc(Oc5c(F)cccc5F)cc4C)c3N)[nH]c2cc1NS(=O)(=O)C1CCOCC1 [Example 5-1-269] , state whether its pIC50 is at least 7.
output: criterion met

input: Given Cc1cc(Oc2c(F)cccc2F)ncc1-n1ncc(C(=O)c2cc3cc(OC4CCN(C(C)C)CC4)c(N4CCOC4=O)cc3[nH]2)c1N [Example 5-1-186] , state whether its pIC50 is at least 7.
output: criterion met
